Collected set of pKi measured with Beta-secretase 2 (Homo sapiens) across studies.
pKi: −log10 of the molar value.
Endpoint: pKi

The cases that follow already have their pKi on record.
COc1cccc(-c2ccc(F)c([C@]3(C)Cc4ncncc4C(=N)N3)c2)c1 | 7.27
COC[C@H]1C[C@@H]2[C@](c3cc(Oc4ncncc4F)ccc3F)(CO1)NC(=N)N(C)S2(=O)=O | 8.35

(P) CN1C(=N)N[C@](C)(c2sc(-c3nnc(-c4cnccn4)o3)cc2Cl)CS1(=O)=O
(Q) COc1ccc(-c2nnc(-c3cc(Cl)c([C@]4(C)CS(=O)(=O)N(C)C(=N)N4)s3)o2)cc1
Which of the two gives a bigger number for pKi: P or Q ? In your reply, give the label of the chosen option. Q

(a) CN1C(=N)N[C@]2(c3cc(NC(=O)c4ccc(F)cn4)ccc3F)COC[C@@H]2S1(=O)=O
(b) CN1C(=N)N[C@](C)(c2sc(-c3ccc(C4=NCCO4)[nH]3)cc2Cl)CS1(=O)=O
Which of the two gives a bigger number for pKi: a or b ? In your reply, give the label of the chosen option. b
(b: 7.16, a: 6.31)

(A) CN1C(=N)N[C@](C)(c2sc(-c3nnc(-c4cnn5ccccc45)o3)cc2Cl)CS1(=O)=O
(B) CN1C(=N)N[C@](C)(c2cc(NC(=O)c3ccc(C(F)(F)F)cn3)ccc2F)C2(CC2)S1(=O)=O
(C) Cc1nnc(-c2ccc(-c3cc(Cl)c([C@]4(C)CS(=O)(=O)N(C)C(=N)N4)s3)[nH]2)o1
(D) CN1C(=N)N[C@](C)(c2sc(-c3cnn(-c4ccccc4)c3)cc2Cl)CS1(=O)=O
Place the items in sequence of falling pKi. A complete answer lists every label in the requested sequence. C, D, B, A
